# target.of.assay: UniProt:Q9HBA0
# Sequence (Q9HBA0 whole entry): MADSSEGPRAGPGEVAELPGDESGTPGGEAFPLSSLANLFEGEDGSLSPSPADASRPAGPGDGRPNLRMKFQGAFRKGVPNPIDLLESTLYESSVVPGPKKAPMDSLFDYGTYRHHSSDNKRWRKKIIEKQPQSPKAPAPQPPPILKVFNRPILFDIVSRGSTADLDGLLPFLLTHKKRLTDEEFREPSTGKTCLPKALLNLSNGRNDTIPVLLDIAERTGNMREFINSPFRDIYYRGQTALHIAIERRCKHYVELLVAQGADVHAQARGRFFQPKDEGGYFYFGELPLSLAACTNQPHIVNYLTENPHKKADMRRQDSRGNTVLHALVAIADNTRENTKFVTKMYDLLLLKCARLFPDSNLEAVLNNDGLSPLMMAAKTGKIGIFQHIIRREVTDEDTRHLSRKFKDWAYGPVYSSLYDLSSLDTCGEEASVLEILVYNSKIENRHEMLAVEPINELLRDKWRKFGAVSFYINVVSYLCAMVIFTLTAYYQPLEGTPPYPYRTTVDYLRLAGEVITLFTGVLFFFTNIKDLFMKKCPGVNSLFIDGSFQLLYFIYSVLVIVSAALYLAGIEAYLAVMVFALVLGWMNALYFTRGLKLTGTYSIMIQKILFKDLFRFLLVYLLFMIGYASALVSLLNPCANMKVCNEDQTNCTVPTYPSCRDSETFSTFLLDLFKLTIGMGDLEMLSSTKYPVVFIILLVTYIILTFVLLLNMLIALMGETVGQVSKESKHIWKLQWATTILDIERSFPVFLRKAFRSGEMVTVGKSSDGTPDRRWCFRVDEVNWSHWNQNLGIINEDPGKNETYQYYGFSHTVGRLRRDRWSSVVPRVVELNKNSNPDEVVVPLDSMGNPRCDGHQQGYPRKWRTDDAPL
# test.protocol: Ligand-gated assay (Fluo4 calcium, FLIPR; inhibition of agonist-induced activation)
# test.settings: HEK-293-MSR-II cells transduced with BacMam human TRPV4; agonist at EC80
pIC50: −log10 of the molar value.
For each of the molecules below, state its pIC50.

Observe how each entry below is paired with its result.
C[C@]1(Cn2cnc3ccc(C#N)cc32)CCC[C@@]2(CN(c3cc(C4(C#N)CC4)no3)C(=O)O2)C1 ... 7.30 to 8.00
Cc1cnc(N2C[C@@]3(CCC[C@](C)(Cn4cnc5ccc(C#N)cc54)C3)OC2=O)c(Cl)c1 ... 8.00 to 10.00
CC(C)(C)n1ncc(N2C[C@@]3(CCC[C@](C)(Cn4cnc5ccc(C#N)cc54)C3)OC2=O)n1 ... 8.00 to 10.00
CC(C)(C#N)c1ccc(N2C[C@@]3(CCC[C@](C)(Cn4cnc5ccc(C#N)cc54)C3)OC2=O)cn1 ... 8.00 to 10.00
CCn1ncc(N2C[C@@]3(CCC[C@](C)(Cn4cnc5ccc(C#N)cc54)C3)OC2=O)c1C ... 8.00 to 10.00
C[C@]1(Cn2cnc3ccc(C#N)cc32)CCC[C@@]2(CN(c3cnc(C(F)(F)F)nc3)C(=O)O2)C1 ... 8.00 to 10.00
CC(C)(C)n1cc(N2C[C@@]3(CCC[C@](C)(Cn4cnc5ccc(C#N)cc54)C3)OC2=O)nn1 ... 6.30 to 7.30
COc1cccnc1N1C[C@@]2(CCC[C@](C)(Cn3cnc4ccc(C#N)cc43)C2)OC1=O ... 6.30 to 7.30
N#Cc1ccc2ccn(C[C@H]3CCC[C@]4(C3)CN(Cc3csc5ccc(Cl)cc35)C(=O)O4)c2c1 (stereo in doubt) ... 6.30 to 7.30
CC(C)(CN1C[C@@]2(CCC[C@H](Cn3cnc4ccc(C#N)cc43)C2)OC1=O)c1nc(C2CCCC2)no1 ... 8.00 to 10.00

# batch size: 5; output pIC50 per entry
1. C[C@]1(Cn2cnc3ccc(C#N)cc32)CCC[C@@]2(CN(c3ncccc3C(F)(F)F)C(=O)O2)C1
2. Cn1nc(C(C)(C)C)cc1N1C[C@@]2(CCC[C@](C)(Cn3cnc4ccc(C#N)cc43)C2)OC1=O
3. CCOc1cc(C)c(N2C[C@@]3(CCC[C@H](Cn4cnc5ccc(C#N)cc54)C3)OC2=O)cn1
4. C[C@]1(Cn2cnc3ccc(C#N)cc32)CCC[C@@]2(CN(c3ccc(C(F)(F)F)cn3)C(=O)O2)C1
5. Cc1noc(C(C)(C)CN2C[C@@]3(CCC[C@H](Cn4cnc5ccc(C#N)cc54)C3)OC2=O)n1

**Result**
1. 6.30 to 7.30
2. 6.30 to 7.30
3. 7.30 to 8.00
4. 7.30 to 8.00
5. 7.30 to 8.00

* * *

I'd be grateful if you could share measured IC50 for these entries.
# target.of.assay: UniProt Q9HBA0
# test.protocol: Ligand-gated assay (Fluo4 calcium, FLIPR; inhibition of agonist-induced activation)
# test.settings: HEK-293-MSR-II cells transduced with BacMam human TRPV4; agonist at EC80

Reference set (5 entries):
CCOc1ncc(N2C[C@@]3(CCC[C@](C)(Cn4cnc5ccc(C#N)cc54)C3)OC2=O)cn1 [Example 113] ... 10 to 50 nM
Cc1c(C(C)(C)C)noc1N1C[C@@]2(CCC[C@H](Cn3cnc4ccc(C#N)cc43)C2)OC1=O [Example 46] ... 0.1 to 10 nM
CC(C)Cc1cc(N2C[C@@]3(CCC[C@](C)(Cn4cnc5ccc(C#N)cc54)C3)OC2=O)on1 [Example 31] ... 0.1 to 10 nM
Cc1noc(N2C[C@@]3(CCC[C@](C)(Cn4cnc5ccc(C#N)cc54)C3)OC2=O)c1C [Example 57] ... 0.1 to 10 nM
N#Cc1ccc2ncn(C[C@H]3CCC[C@]4(C3)CN(Cc3sc5ncccc5c3Br)C(=O)O4)c2c1 [Example 153] ... 0.1 to 10 nM

Go through the items and report each one's IC50.
1. COCCOC(C)(C)c1cnc(N2C[C@@]3(CCC[C@](C)(Cn4cnc5ccc(C#N)cc54)C3)OC2=O)cn1 [Example 163]
2. CC(C)(C)c1cc(N2C[C@@]3(CCC[C@](C)(Cn4cnc5ccc(C#N)cc54)C3)OC2=O)no1 [Example 3]

**Result**
["0.1 to 10 nM", "0.1 to 10 nM"]

Quick one: give me IC50 for each item below, same order please.
1. N#Cc1ccc2ncn(C[C@H]3CCC[C@]4(C3)CN(Cc3csc5ccccc35)C(=O)O4)c2c1 (stereo in doubt) [Example 62]
2. CC1(CN2C[C@@]3(CCC[C@H](Cn4cnc5ccc(C#N)cc54)C3)OC2=O)CCN(c2ncccn2)C1 (stereo partly drawn) [Example 7]
3. COc1ncc(N2C[C@@]3(CCC[C@](C)(Cn4cnc5ccc(C#N)cc54)C3)OC2=O)cc1C [Example 132]
4. COc1cc(C)c(N2C[C@@]3(CCC[C@](CO)(Cn4cnc5ccc(C#N)cc54)C3)OC2=O)cn1 [Example 143]
5. N#Cc1ccc2ncn(C[C@H]3CCC[C@]4(C3)CN(Cc3cn(-c5ccc(C(F)(F)F)cc5)nn3)C(=O)O4)c2c1 [Example 102]

**Result**
1. 10 to 50 nM
2. 50 to 500 nM
3. 0.1 to 10 nM
4. 10 to 50 nM
5. 0.1 to 10 nM

Respectfully, I request IC50 for each entry included below.
1. Cc1cnc(N2C[C@@]3(CCC[C@](C)(Cn4cnc5ccc(C#N)cc54)C3)OC2=O)cn1 [Example 117]
2. Cc1nc(C(F)(F)F)ncc1N1C[C@@]2(CCC[C@H](Cn3cnc4ccc(C#N)cc43)C2)OC1=O [Example 124]
3. Cc1ccc(N2C[C@@]3(CCC[C@](C)(Cn4cnc5ccc(C#N)cc54)C3)OC2=O)cn1 [Example 140]

**Result**
1. 50 to 500 nM
2. 10 to 50 nM
3. 50 to 500 nM

This collection of values is drawn from patent US9187464B2.
